- ASSAY SYSTEM: α-1A adrenoreceptor (Rattus norvegicus)
- Sequence (P43140 whole entry): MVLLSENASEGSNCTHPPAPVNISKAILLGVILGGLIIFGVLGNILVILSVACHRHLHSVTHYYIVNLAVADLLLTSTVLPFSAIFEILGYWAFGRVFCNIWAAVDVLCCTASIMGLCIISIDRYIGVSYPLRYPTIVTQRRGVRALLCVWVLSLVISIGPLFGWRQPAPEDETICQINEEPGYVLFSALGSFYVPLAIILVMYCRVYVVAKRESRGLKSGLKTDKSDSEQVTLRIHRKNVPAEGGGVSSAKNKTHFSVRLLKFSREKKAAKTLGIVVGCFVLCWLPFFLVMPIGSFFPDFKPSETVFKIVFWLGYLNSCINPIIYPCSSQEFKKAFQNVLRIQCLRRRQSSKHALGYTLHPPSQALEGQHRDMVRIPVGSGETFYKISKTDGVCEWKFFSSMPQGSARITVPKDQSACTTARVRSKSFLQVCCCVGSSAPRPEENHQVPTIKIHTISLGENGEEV
- EXPERIMENTAL PROTOCOL: cell-based
- CONDITION PARAMETERS: phenylephrine-induced contraction; Schild plot; read-out: In Vitro Characterization (pA2) Rat Vas (converted)
Where a name gives a salt, the structure may show the parent alone.
READOUT KIND: Kb (nM)
Could you give me the number in nM? Just the number is fine.

In the examples that follow, each entry is paired with its recorded Kb.
1) COc1cccc2c1[C@H]1CN(CCCCn3c(=O)[nH]c4c(sc5nccnc54)c3=O)C[C@@H]1CO2.Cl.Cl (racemic) [Example 74, dihydrochloride]: 0.794
2) COc1cccc2c1[C@@H]1CN(CCCCn3c(=O)[nH]c4c(sc5nc(Cl)ccc54)c3=O)C[C@H]1CO2 [Example 47, hydrochloride]: 1.12

Next, consider the following molecule.
Exercise: What value of Kb has been reported for the following molecule? COc1cccc2c1[C@@H]1CN(CCCCn3c(=O)[nH]c4c(sc5nc(C)ccc54)c3=O)C[C@@H]1CO2 [Example 35, hydrochloride]
Key: 1.26
